# assay_method_text: reduced mouse 2C T cell binding to pMHC/ICAM-1 vesicles – MLPCN validation set, flow cytometry, LFA-1/ICAM-1 modulator project, pilot screen (AID 2523)
# test_parameters: 2C mouse CD8+ T cells, at 7 µM, stronger effect = lower value; measured here: CD8+/vesicle+ event percentage
Field 'label' (enum: condition met / condition not met). Set to condition met when double positive events is strictly under 60%; else condition not met.

# example entries with known answers
| molecule | discrete_label |
| --- | --- |
| O=C(O)Cc1ccc(-c2ccccc2)cc1 | condition not met |
| O=C(O)c1ccc(C(=O)C(=O)c2ccccc2)cc1 | condition not met |
| CS(=O)(=O)NCc1ccc(C(=O)NCc2ccccc2)cc1 | condition met |
| CC(=O)[C@@]1(O)CC[C@H]2[C@@H]3CCC4=CC(=O)CC[C@]4(C)[C@H]3[C@@H](O)C[C@@]21C | condition met |

Check if double positive events falls below 60% for `NC(N)=N/N=C/c1c(Cl)cccc1Cl` .
condition not met

Check if double positive events falls below 60% for `C=CCNc1nc2c(c(=O)n(C)c(=O)n2C)n1CC(=C)C` .
condition not met

Check if double positive events falls below 60% for `Cc1csc(N)n1` .
condition not met

Check if double positive events falls below 60% for `CCOC(=O)C(=Cc1ccccc1OC)C(=O)OCC` .
condition met

---

# assay_method_text: TOR pathway LAP4-GFP level changes – S. cerevisiae, multiplex flow cytometry, primary screen (AID 1873)
# test_parameters: S. cerevisiae LAP4-GFP expression, 3 h, at 10 µM, stronger effect = higher value
Inconclusive results are not listed.
observed_property: GFP response vs DMSO (%)
Your answer should be a plain number; it is taken to be in %.

Solved cases (3 shown):
| compound | units_symbol | GFP response vs DMSO |
| --- | --- | --- |
| CN(C)c1ccc(CNCCC(Cc2ccccc2)c2ccco2)cc1 (stereo not given) | % | 89.4 |
| CC12CCC(C(=O)N(CCC#N)CCC#N)(CC1=O)C2(C)C (stereo not given) | % | 113 |
| CCCC(=O)O[C@]1(C(=O)COC(C)=O)CC[C@H]2[C@@H]3C[C@H](F)C4=CC(=O)C=C[C@]4(C)[C@@]3(F)[C@@H](O)C[C@@]21C | % | 107 |

Item under review: COc1cccc(NC(=O)C2CC(=O)OC23CCOC(C)(C)C3)c1 (stereo not given) . Reported GFP response vs DMSO?
80.9

Item under review: `COc1cc2c(cc1OC)CN(C(=O)c1ccc(S(=O)(=O)N(C)c3ccccc3)cc1)CC2` . Reported GFP response vs DMSO?
115

---

# assay_method_text: TOR pathway GLN3 branch reporter MEP2-GFP changes – S. cerevisiae, multiplex flow cytometry, primary screen (AID 1867);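 note: median GFP channel fluorescence of barcode-gated MEP2-GFP cells measured by flow cytometry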
# test_parameters: S. cerevisiae MEP2-GFP strain, 3 h, at 10 µM, stronger effect = higher value, 100% means same as DMSO wells
Results filed as inconclusive are left out.
Listing of entries alongside the reported GFP response vs DMSO.
Your answer should be a plain number; it is taken to be in %.

| molecule | observed_property | observed_measurement |
| --- | --- | --- |
| COc1ccc(-c2cc(=Nc3ccc(C)cc3)c3ccccc3o2)cc1 | GFP response vs DMSO | 106 |

Item under review: `Fc1ccc(NC(=S)Nc2ccccc2Cl)cc1` . Reported GFP response vs DMSO?
133

Item under review: `CC(=O)Nc1ccccc1O` . Reported GFP response vs DMSO?
152

Item under review: COc1ccc(C2OC(=O)Cc3cc(OC)c(OC)cc32)cc1 (configuration not stated) . Reported GFP response vs DMSO?
127

Item under review: COc1cc(C(=O)CCN2CCC(c3ccccc3)C2)cc(OC)c1OC (configuration not stated) . Reported GFP response vs DMSO?
97.7

Item under review: Cc1nc(C2CC(=O)OC23CCCCC3)cs1 (configuration not stated) . Reported GFP response vs DMSO?
106

Item under review: `CCCCC[C@H](O)/C=C/C1=C(CCCCCCC(=O)O)C(=O)CC1` . Reported GFP response vs DMSO?
106
